These measurements were taken from paper PMC12935787.

# PROTOCOL TEXT: Clinical pharmacokinetics, plasma LC-MS/MS after single oral dose of AP capsules
# Type: in vivo, human (healthy volunteers)
# STUDY CONDITIONS: human, plasma, oral, 2000 mg, S1; 3.00 h; 2000 mg AP capsules; read-out: Plasma concentration
READOUT: concentration at 3 h (ng/mL)
Quick reminder: number only, in ng/mL, skip the unit.

Some solved entries appear below for comparison.
- COMPOUND: "C=C1CC[C@@H]2[C@](C)(CO)[C@H](O)CC[C@@]2(C)[C@@H]1C/C=C1/C(=O)OC[C@H]1O [andrographolide]"
  READOUT: "concentration at 3 h"
  UNIT OF MEASURE: "ng/mL"
  MEASURED NUMBER: 3.86
- COMPOUND: "C=C1CC[C@@H]2[C@](C)(CO)[C@H](O)CC[C@@]2(C)[C@@H]1CCC1=CCOC1=O [14-deoxyandrographolide]"
  READOUT: "concentration at 3 h"
  UNIT OF MEASURE: "ng/mL"
  MEASURED NUMBER: 6.06

// below: concentration at 3 h requested for another compound
Task item: Suppose we examine the compound C=C1CC[C@@H]2[C@](C)(CO[C@@H]3O[C@H](CO)[C@@H](O)[C@H](O)[C@H]3O)CCC[C@@]2(C)[C@@H]1CCC1=CCOC1=O [neoandrographolide] ; what concentration at 3 h value has been reported?
Reply: 24.1

###

# PROTOCOL TEXT: Clinical pharmacokinetics, plasma LC-MS/MS after single oral dose of AP capsules
# Format: in vivo, human (healthy volunteers)
# STUDY CONDITIONS: human; plasma, 2000 mg AP capsules oral, fasting, n=5
# Protocol: The protocol was published (Tee et al. [2022]). Seven calibrators ranging from 1, 2, 5,10, 20, 50, and 100 ng mL^−1 were prepared. […] Pharmacokinetic parameters were determined from plasma samples (5 subjects, 15 time points) analyzed via LC–MS/MS (Shimadzu 8060NX). […]
READOUT: AUC(0-t) (ng·h/mL)
Return type: number; implicit unit ng·h/mL.

- COMPOUND: "C=C1CC[C@@H]2[C@](C)(CO)[C@H](O)CC[C@@]2(C)[C@@H]1C/C=C1/C(=O)OC[C@H]1O [andrographolide]"
  UNIT OF MEASURE: "ng·h/mL"
  AUC(0-t): 20.7

Task item: For the compound shown here, C=C1CC[C@@H]2[C@](C)(CO[C@@H]3O[C@H](CO)[C@@H](O)[C@H](O)[C@H]3O)CCC[C@@]2(C)[C@@H]1CCC1=CCOC1=O [neoandrographolide] , give the reported AUC(0-t).
Reply: 161

Task item: Looking for the measured AUC(0-t) of C=C1CC[C@@H]2[C@](C)(CO)[C@H](O)CC[C@@]2(C)[C@@H]1CCC1=CCOC1=O [14-deoxyandrographolide] , can you help?
Reply: 19.6

###

# PROTOCOL TEXT: Clinical pharmacokinetics, plasma LC-MS/MS after single oral dose of AP capsules
# Assay type: in vivo, human (healthy volunteers)
# STUDY CONDITIONS: human, plasma, oral, 2000 mg, S4; 24.00 h; 2000 mg AP capsules; read-out: Plasma concentration
READOUT: concentration at 24 h (ng/mL)
# number only, unit ng/mL dropped from output

Task item: Query: concentration at 24 h; subject: C=C1CC[C@@H]2[C@](C)(CO)[C@H](O)CC[C@@]2(C)[C@@H]1CCC1=CCOC1=O [14-deoxyandrographolide]
Reply: 0

Task item: Which concentration at 24 h is reported for this molecule? C=C1CC[C@@H]2[C@](C)(CO)[C@H](O)CC[C@@]2(C)[C@@H]1C/C=C1/C(=O)OC[C@H]1O [andrographolide]
Reply: 0

Task item: Consider the molecule C=C1CC[C@@H]2[C@](C)(CO[C@@H]3O[C@H](CO)[C@@H](O)[C@H](O)[C@H]3O)CCC[C@@]2(C)[C@@H]1CCC1=CCOC1=O [neoandrographolide] and give its measured concentration at 24 h.
Reply: 0
